# Measurement Notes: NCI Yeast Anticancer Drug Screen. Data for the sgs1 strain (AID 173);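 note: 0% = growth of vehicle-only control cultures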
# Cond: S. cerevisiae sgs1 mutant, at 1.2 µM, active compounds read high
Compounds without any hit were thinned out: in the full panel of roughly 79,000, 15% have a hit.
Observable: growth inhibition (%)

compound=c1ccc2c(c1)sc1cc3ccncc3cc12 observable="growth inhibition" reading=-2
compound=Cc1ccc(S(=O)(=O)NNC(=S)Nc2cccc3ccccc23)cc1 observable="growth inhibition" reading=2
compound="OCC(Cn1cncn1)(c1ccc(F)cc1F)n1cncn1 (stereo not given)" observable="growth inhibition" reading=48
compound=COc1ccccc1/C=C1\Sc2scc(-c3cccc([N+](=O)[O-])c3)[n+]2C1=O observable="growth inhibition" reading=34
compound=CSC(=S)N/N=C(\C)c1cccc(C)n1 observable="growth inhibition" reading=-3
